This collection of values is drawn from patent US8664257B2.

Molecular target: Recombinant human cathepsin A (Homo sapiens, UniProt P10619)
Construct: Recombinant human cathepsin A (residues 29-480, with a C-terminal 10-His tag); 10-His (C); purchased R&D Systems 1049-SE
Sequence (P10619 29-312 limits assumed): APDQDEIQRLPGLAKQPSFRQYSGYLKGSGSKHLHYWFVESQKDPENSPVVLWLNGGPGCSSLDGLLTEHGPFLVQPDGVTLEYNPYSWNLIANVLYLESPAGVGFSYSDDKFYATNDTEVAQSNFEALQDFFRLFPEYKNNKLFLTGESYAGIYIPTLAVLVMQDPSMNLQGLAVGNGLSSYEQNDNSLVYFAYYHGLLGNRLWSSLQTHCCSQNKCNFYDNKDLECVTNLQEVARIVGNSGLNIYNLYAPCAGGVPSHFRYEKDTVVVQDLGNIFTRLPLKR
Sequence (P10619 327-480 limits assumed): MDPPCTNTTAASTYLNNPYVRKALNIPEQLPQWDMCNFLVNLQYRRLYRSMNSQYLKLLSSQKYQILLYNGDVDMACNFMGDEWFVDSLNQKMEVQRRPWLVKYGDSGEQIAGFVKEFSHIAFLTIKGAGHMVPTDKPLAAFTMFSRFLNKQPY
Test: Cathepsin A inhibitory activity
Type: biochemical
Details: recombinant human cathepsin A 833 ng/ml, Bodipy FL-labeled bradykinin 2 μM, pH 5.5; read-out: CATH-A IC50
measured_metric: IC50 (nM)

a: O=C(O)CC(NC(=O)c1cc(O)n(-c2ccccc2Cl)n1)c1cc(F)ccc1F (stereo not shown)
b: O=C(O)CC(NC(=O)c1cc(O)n(-c2ccc(Cl)cc2)n1)c1cccc2c1OC(F)(F)O2 (stereo not shown)
c: O=C(O)CC(NC(=O)c1cc(O)n(-c2ccc(Cl)cc2)n1)c1cc(F)ccc1C(F)(F)F (stereo not shown)
Please sort the molecules listed above from highest to lowest IC50. Reply with the labels, ordered as the question asks. c, b, a
(c: 1730 nM, b: 486 nM, a: 128 nM)

----------
Molecular target: Recombinant human cathepsin A (Homo sapiens)
Construct: Recombinant human cathepsin A (residues 29-480, with a C-terminal 10-His tag); 10-His (C); purchased R&D Systems 1049-SE
Assay: Cathepsin A inhibitory activity
Assay type: biochemical
Conditions: read-out: Activity (2): Cathepsin A inhibitory activity, IC50 class
pIC50: −log10 of the molar value.
measured_metric: pIC50

| compound | pIC50 |
| --- | --- |
| CC(C)[C@](C)(O)COc1cc(C(=O)N[C@H](CC(=O)O)Cc2ccccc2)nn1-c1ccccc1F | 4.52 to 6.00 |
| O=C(O)C[C@H](NC(=O)c1cc(O)n(-c2ccccc2)n1)c1ccc(Cl)cc1Cl | 6.00 to 7.00 |
| O=C(O)CC(NC(=O)c1cc(O)n(-c2ccc(Cl)cc2)n1)c1ccc(Oc2ccccc2)cc1 (centres unmarked) | 4.52 to 6.00 |
| Cc1cc(F)ccc1C(CC(=O)O)NC(=O)c1cc(O)n(-c2ccccc2)n1 (centres unmarked) | 6.00 to 7.00 |
| O=C(O)C[C@H](NC(=O)c1cc(O)n(-c2ccc(Cl)cc2)n1)c1ccc(Cl)cc1Cl | 6.00 to 7.00 |
| Cc1ccc(C)c(-n2nc(C(=O)NC(CC(=O)O)c3ccccc3C)cc2O)c1 (centres unmarked) | 6.00 to 7.00 |

Report pIC50 for O=C(O)CC(CCc1ccccc1)NC(=O)c1cc(O)n(-c2ccccc2)n1 (centres unmarked) please. 4.52 to 6.00

// query: Cc1cccc(C(CC(=O)O)NC(=O)c2cc(O)n(-c3ccc(Cl)cc3)n2)c1C (centres unmarked) 6.00 to 7.00

// query: `O=C(O)C[C@H](NC(=O)c1cc(O)n(-c2ccccc2Cl)n1)c1ccccc1F` 6.00 to 7.00

// query: CCc1ccc(C(CC(=O)O)NC(=O)c2cc(O)n(-c3cc(C)ccc3C)n2)cc1 (centres unmarked) 4.52 to 6.00

// query: `O=C(O)C[C@H](NC(=O)c1cc(O)n(-c2ccccc2F)n1)c1cccc(F)c1` 6.00 to 7.00

// query: `O=C(O)C[C@H](NC(=O)c1cc(O)n(-c2ccc(F)cc2)n1)c1c(F)cccc1F` 6.00 to 7.00

----------
Target: Recombinant human cathepsin A (Homo sapiens, UniProt P10619)
Construct: Recombinant human cathepsin A (residues 29-480, with a C-terminal 10-His tag); 10-His (C); purchased R&D Systems 1049-SE
Experiment: Cathepsin A inhibitory activity
Assay type: biochemical
Conditions: pharmacological test "Cathepsin A inhibitory activity"; IC50 given as class A/B/C; read-out: Activity (2): Cathepsin A inhibitory activity, IC50 class
From the text: a) Cathepsin A Inhibitory Activity Recombinant human cathepsin A (residues 29-480, with a C-terminal 10-His tag; R&D Systems, #1049-SE) was proteolytically activated with recombinant human cathepsin L (R&D Systems, #952-CY). […] Uncleaved substrate and product were then separated by a microfluidic capillary electrophoresis on a LabChip® 3000 Drug Discovery System (12-Sipper-Chip; Caliper Life Sciences) and quantified by determination of the respective peak areas. […]
measured_metric: IC50

| compound | IC50 |
| --- | --- |
| N#Cc1cccc([C@H](CC(=O)O)NC(=O)c2cc(O)n(-c3ccccc3)n2)c1 [Example 160] | 1000 to 30000 nM |
| N#Cc1cccc([C@H](CC(=O)O)NC(=O)c2cc(O)n(-c3cccc(Cl)c3)n2)c1 [Example 252] | 1000 to 30000 nM |
| O=C(O)CC(NC(=O)c1cc(O)n(-c2cccc(Cl)c2)n1)c1ccc(-c2cccc(F)c2)cc1 (centres unmarked) [Example 260] | 1000 to 30000 nM |
| O=C(O)C[C@H](NC(=O)c1cc(O)n(-c2ccc(F)cc2F)n1)c1cccc(F)c1 [Example 183] | 100 to 1000 nM |

Switching to the query record.
Report IC50 for O=C(O)C[C@H](NC(=O)c1cc(O)n(-c2ccccc2F)n1)c1ccc(F)cc1 [Example 236] please. 100 to 1000 nM
